Test system: Saccharomyces cerevisiae
Assay: protein stability index of tFT-peptide fusion (C-terminal peptide) (PSI (0-1 scale)); higher = more stable (slower turnover)
Conditions: genetic background: wild type; temperature: 30 C
Decision: protein stability index >= 0.7 yields TRUE, all other cases yield FALSE.

Solved cases (5 shown):
# residue-codes, group-label
records = [
    ("WRCLHLVYLFFH", "FALSE"),
    ("GCVGLSFCVWVG", "FALSE"),
    ("AVRVLLISSSGT", "FALSE"),
    ("SGAVVIPCTFER", "FALSE"),
    ("GVMICLDLLLSV", "FALSE"),
]

Test whether the sequence LPFPPSPPLPSP records protein stability index of 0.7 or higher. FALSE

Would you say IFKSLEKKTKRV shows protein stability index at minimum 0.7? TRUE

# bool: protein stability index of FGAGLTACPVSV >= 0.7 FALSE

Reported protein stability index reaches at least 0.7 for SSHHGSSEDDHQ ? FALSE

----------
Tested on: Saccharomyces cerevisiae
Assay: protein stability index of tFT-peptide fusion (C-terminal peptide) (PSI (0-1 scale)); higher = more stable (slower turnover)
Settings: genetic background: wild type; temperature: 30 C
Task for the reader: assign each of the following sequences its reported protein stability index.
One number for each entry.

Known results for sequences:
# residue-codes, protein stability index
measured = [
    ("KKTLIQKEQIRR", 0.644),
    ("FISPSPLPPYSP", 0.665),
    ("VLLLLGGIVCVM", 0.327),
]

Okay, here is my list. What is protein stability index for each of these?
1. RGFGGVLGRVFL
2. PQSCNILRGLES
3. IGLRVLSNSYEV

1: 0.725; 2: 0.708; 3: 0.694

Batch request: protein stability index for each of the following sequences.
1. GGIVGVSWLVRS
2. SFGLSAGGDDRW
3. GGAWGHCSHEWS
4. PLLLLLPSLLLV
5. PPPPRPLKLFPP

0.657
0.74
0.688
0.25
0.588

Count: 6. Required value per item: protein stability index.
1. GPLVQVTSYSRY
2. NIKITVHSTMDM
3. PSDTHTPDQPAK
4. SRYERLFSDNRG
5. LHAHTAPAHPKT
6. WGECGVWVGLWG

1: 0.691; 2: 0.698; 3: 0.694; 4: 0.718; 5: 0.689; 6: 0.709

----------
Test system: Saccharomyces cerevisiae
Assay: protein stability index of tFT-peptide fusion (C-terminal peptide) (PSI (0-1 scale)); higher = more stable (slower turnover)
Conditions: genetic background: wild type; temperature: 30 C
If the reported protein stability index equals or exceeds 0.7, assign Satisfied. If not, assign Not satisfied.

Example entries begin here.
# residue-codes, group-label
records = [
    ("AFPVGFLVGLVV", "Not satisfied"),
    ("ASQTTKAKNTGH", "Not satisfied"),
]

Exam item: decide whether the reported protein stability index for EWGAGGGVWGLG is at least 0.7. Satisfied

Reported protein stability index at or above 0.7? ASEKFGIMSTML Not satisfied

----------
Tested on: Saccharomyces cerevisiae
Experiment: protein stability index of tFT-peptide fusion (C-terminal peptide) (PSI (0-1 scale)); higher = more stable (slower turnover)
Settings: genetic background: wild type; temperature: 30 C
assay-endpoint: protein stability index
Answers are plain numbers.

# example entries with known answers
# residue-codes, tgt, protein stability index
data = [
    ("RVSLELEIIPPS", "Saccharomyces cerevisiae", 0.706),
    ("VVLGGFAVGLGF", "Saccharomyces cerevisiae", 0.708),
    ("RPNWSRFTSIYA", "Saccharomyces cerevisiae", 0.653),
    ("PSTPFAPPSATY", "Saccharomyces cerevisiae", 0.685),
    ("GSLVLSCLMSRA", "Saccharomyces cerevisiae", 0.487),
    ("GVVIGGAGYKGT", "Saccharomyces cerevisiae", 0.633),
    ("PFFVFSFLFLLH", "Saccharomyces cerevisiae", 0.288),
    ("VVVGSITRLGLW", "Saccharomyces cerevisiae", 0.691),
]

# batch: return protein stability index for each of the 6 sequences below
1. PIPPPPPPPSSP
2. VRVGRGGKELND
3. FIRLFLVSFFIS
4. WSGVFSCTLSIT
5. ESRVLYGLCLWC
6. PPRPLRAEGLES

1: 0.699; 2: 0.576; 3: 0.31; 4: 0.567; 5: 0.596; 6: 0.727

Below are some sequences; for each one, tell me its protein stability index.
1. QRPFRRRRVLCP
2. PPLGMPLYHPRP
3. VLVVLRSEVSLS
4. DLLYGLAMSLSN
5. RPAMSPPPLCPP
6. WQGWFLSLCIWV
7. QWGGWGVGRIEG

0.561
0.743
0.284
0.704
0.625
0.348
0.629

Parameter requested: protein stability index. Apply to each item below.
1. ERALYGFSSIFY
2. PPHSSPPPPPPS

[0.667, 0.715]

----------
Can you tell me protein stability index for the items I'm about to list?
System: Saccharomyces cerevisiae
Assay: protein stability index of tFT-peptide fusion (C-terminal peptide) (PSI (0-1 scale)); higher = more stable (slower turnover)
Settings: genetic background: das1 deletion; temperature: 37 C

Answered cases to consult:
# residue-codes, tgt, protein stability index
records = [
    ("VTSVARVVLHLL", "Saccharomyces cerevisiae", 0.702),
    ("FFVWGVFLGVSW", "Saccharomyces cerevisiae", 0.406),
    ("CLVFGFLFFIVI", "Saccharomyces cerevisiae", 0.449),
]

I'm hoping you can list protein stability index for every sequence here, please.
1. SVSFFSLCTSSL
2. SRLVSRLGLYLS
3. GGVVLVVVFCCV
4. FLLAIVRGVWLA
5. RNFSFTVICLAM
6. LVFPRWACSLVF
7. VVLVVVWWGGVE
8. LWRFFFVAFVGI

1. 0.541
2. 0.728
3. 0.352
4. 0.339
5. 0.549
6. 0.426
7. 0.487
8. 0.55

Please state, for each entry, its recorded protein stability index.
1. PLLLLLPSLLLV
2. SLARPGLCFVIA
3. VFSCFLFLVVLV
4. VFFRCVCCLSVF
5. LSRSAGVGVWVG

1. 0.439
2. 0.569
3. 0.283
4. 0.412
5. 0.731

Give protein stability index for each listed item.
1. PPVAYVCHLYVT
2. VGTGVGEGGGVV
3. FPVSSRSFSFIP
4. LASLSRPFRAKF
5. YTVRRVWLVRSR
6. RWRYHAYVITIL
7. IGFSPSFQLYSA
8. VIGFGEVWIRCV

0.606
0.73
0.732
0.914
0.501
0.506
0.773
0.619

Can you give me protein stability index for all of these, one by one?
1. FLVFRPPALFLR
2. IKCVPLVWRLTV
3. RMTFFGFTVKML
4. VRELGVGGWRRQ
5. YLYSSSPWILHG

1. 0.268
2. 0.638
3. 0.75
4. 0.752
5. 0.748

----------
Tested on: Saccharomyces cerevisiae
Assay: protein stability index of tFT-peptide fusion (C-terminal peptide) (PSI (0-1 scale)); higher = more stable (slower turnover)
Conditions: genetic background: das1 deletion; temperature: 30 C
assay-endpoint: protein stability index
One number for each entry.

The examples below pair each entry with its known result.
# residue-codes, protein stability index
rows = [
    ("SQAGLMSNEEVL [CCC2 C-terminal 12 aa]", 0.697),
    ("NKDTMQLFRAYL [CIN2 C-terminal 12 aa]", 0.769),
    ("ALHLLTKFTHII [SBH2 C-terminal 12 aa]", 0.733),
    ("KNEEDSTYFSNV [PMR1 C-terminal 12 aa]", 0.693),
    ("DDNEKALTWEEL [ATG19 C-terminal 12 aa]", 0.706),
]

Please look at the following sequence next.
Form field - read-out: protein stability index; system: Saccharomyces cerevisiae; submitted item: KRAELASKYIYS [COG8 C-terminal 12 aa] 0.713

----------
Test system: Saccharomyces cerevisiae
Test: protein stability index of tFT-peptide fusion (C-terminal peptide) (PSI (0-1 scale)); higher = more stable (slower turnover)
Details: genetic background: wild type; temperature: 30 C
Please note: Satisfied applies when protein stability index is 0.4 or greater, and Not satisfied applies otherwise.

# residue-codes, group-label
records = [
    ("APLPPPPASVPP", "Satisfied"),
    ("GRWAFFTWLRWS", "Not satisfied"),
    ("WSFYVVGRLLVN", "Not satisfied"),
    ("PRTTHTPLLIAS", "Not satisfied"),
]

Test whether the sequence LWRFFFVAFVGI records protein stability index of 0.4 or higher. Not satisfied

// data source = the supplement of paper PMC10724198
